biological target: GCase (Homo sapiens, UniProt P04062); construct: endogenous in cells; host or cells: HeLa cells; assay: activation of GCase in a live cell PFB assay in HELA cells; type: cell-based; conditions: activation of GCase, EC50 ranges
Sequence (P04062 40-536): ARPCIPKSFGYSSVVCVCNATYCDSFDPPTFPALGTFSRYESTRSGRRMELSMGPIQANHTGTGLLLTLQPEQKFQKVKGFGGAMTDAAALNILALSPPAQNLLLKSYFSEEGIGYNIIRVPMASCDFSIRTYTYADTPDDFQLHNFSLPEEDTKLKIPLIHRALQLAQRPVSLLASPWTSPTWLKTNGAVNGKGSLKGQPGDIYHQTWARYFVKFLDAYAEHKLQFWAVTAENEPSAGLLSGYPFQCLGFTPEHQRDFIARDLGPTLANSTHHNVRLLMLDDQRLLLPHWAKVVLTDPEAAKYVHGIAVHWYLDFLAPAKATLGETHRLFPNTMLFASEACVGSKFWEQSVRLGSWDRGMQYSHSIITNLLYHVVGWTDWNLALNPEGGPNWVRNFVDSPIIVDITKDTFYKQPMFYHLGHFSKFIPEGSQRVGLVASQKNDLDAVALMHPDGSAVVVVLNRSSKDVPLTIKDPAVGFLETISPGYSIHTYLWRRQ
Recorded EC50 by entry

# Compound, EC50
rows = [
    ("O=C1CC2(CCN(c3ncc4cnn(CC(F)F)c4n3)CC2)CN1c1cncc(C(F)(F)F)n1", "10 to 50 µM"),
    ("Cc1nc(N2CC3(CCN(c4cncc(-c5nncs5)n4)C3)C2)cc(C(F)(F)F)n1", "> 100 µM"),
    ("O=C1CC2(CN(c3ccnc(C(F)(F)F)c3)C2)CN1c1cnc2cnn(CC(F)F)c2n1", "< 10 µM"),
    ("O=C(c1ccc(C(F)(F)F)cn1)N1CCC2(CCN(c3cnc4cnn(CC(F)F)c4n3)CC2)C1", "> 100 µM"),
    ("Cc1cnc(C(F)(F)F)cc1N1CC2(CCN(c3cnc4cnn(C5COC5)c4n3)C2)C1", "> 100 µM"),
    ("O=C1N(c2cccnc2C(F)(F)F)CCC12CCN(c1cnc3cnn(CC(F)F)c3n1)CC2", "50 to 100 µM"),
    ("CC(C)N1C(=O)N(c2ccc(C(F)(F)F)nc2)C(=O)C12CCN(c1cnc3cnn(C4COC4)c3n1)CC2", "> 100 µM"),
    ("Cc1cc(N2CC3(CCN(c4cnc5cnn(CC(F)F)c5n4)C3)C2)nc(C)n1", "10 to 50 µM"),
    ("FC(F)Cn1ncc2ncc(N3CCC4(CCC4COc4cccc(C(F)(F)F)n4)CC3)nc21 (stereo not drawn)", "10 to 50 µM"),
]
